- assay_target: VEGF165 (recombinant human vascular endothelial growth factor, 165 aa form) (Homo sapiens, UniProt P15692-4 P15692-4:27-191)
- Sequence (P15692 other isoform, or with tags, fused parts or gaps): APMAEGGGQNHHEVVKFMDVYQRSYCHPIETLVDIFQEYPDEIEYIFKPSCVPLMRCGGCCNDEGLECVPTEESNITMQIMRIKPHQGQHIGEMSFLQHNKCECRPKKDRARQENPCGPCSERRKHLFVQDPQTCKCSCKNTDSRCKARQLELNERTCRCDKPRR
- assay_comment: filter; Kd1, X1 0.54, Kd2 9 nM
- condition: tags: gift from N. Ferrara, Genentech; chain copies: 2 (dimer, stated)
reported_property: Kd (nM)
A number alone suffices; assume nM.

Asked: State the recorded Kd for this entry: 44B (ssRNA, 2'-NH2 pyrimidines) RNA: GGGAGGACGAUGCGGAACCGAGUCGUGUGGGUUGGGGCUCCAGUACAUCCCCGGUCUGGGUGUCAGACGACUCGCCCGA
Given back: 0.14
